System: A549
METHOD_DESCRIPTION: Cytotoxic activity against human A549 bulk cells incubated for 72 hrs by Cell-titer-Glo luminescence assay
Assay type: functional, cell-based
MEASUREMENT_PARAMETERS: A549, 72 h
What IC50 was measured for each of the following?
Give the quantity in µM, number only.

Complete the entry with IC50 for CCN(CC)CCNC(=O)c1c(C)[nH]c(/C=C2\C(=O)Nc3ccc(-c4ccc(C=O)cc4)cc32)c1C 10.6

Complete the entry with IC50 for CCN(CC)CCNC(=O)c1c(C)[nH]c(/C=C2\C(=O)Nc3ccc(-c4ccc(OC)cn4)cc32)c1C 10.8

Complete the entry with IC50 for CCN(CC)CCNC(=O)c1c(C)[nH]c(/C=C2\C(=O)Nc3ccc(-c4ncccc4C)cc32)c1C 4.14

Complete the entry with IC50 for CCN(CC)CCNC(=O)c1c(C)[nH]c(/C=C2\C(=O)Nc3c2cccc3-c2cncnc2)c1C 21.5

* * *

TARGET_OF_ASSAY: Ribosomal protein S6 kinase (Homo sapiens) (UniProt P51812+Q9UBS0+O75676+Q15349+O75582+P23443+Q9UK32+Q15418)
METHOD_DESCRIPTION: Inhibition of RPS6 kinase in human HeLa cells assessed as p-RPS6 Ser240/244 phosphorylation level at 5 uM incubated for 6 hrs by SDS-PAGE based chemiluminescence assay
Format: cell-based
Design: scale not given: the % may be the effect or the level left
METRIC: Activity (%)
Give the quantity in %, number only.

Complete the entry with Activity for COC(=O)c1c(C)[nH]c(/C=C2\C(=O)Nc3ccc(-c4csc(C5CCNCC5)n4)cc32)c1C 83

Complete the entry with Activity for CCN(CC)CCNC(=O)c1c(C)[nH]c(/C=C2\C(=O)Nc3ccc(-c4csc(-c5ccc(O)cc5)n4)cc32)c1C 88

Complete the entry with Activity for Cc1cc(C)c(/C=C2\C(=O)Nc3c2cccc3-c2cncnc2)[nH]1 50

Complete the entry with Activity for CCN(CC)CCNC(=O)c1c(C)[nH]c(/C=C2\C(=O)Nc3c2cccc3-c2ccncc2)c1C 65

Complete the entry with Activity for COc1ncc(-c2cccc3c2/C(=C/c2[nH]c(C)cc2C)C(=O)N3)cn1 75

Complete the entry with Activity for Cc1cc(C)c(/C=C2\C(=O)Nc3cccc(-c4ccc5cc[nH]c5c4)c32)[nH]1 35

Complete the entry with Activity for COc1ccc(-c2cccc3c2NC(=O)/C3=C\c2[nH]c(C)cc2C)cn1 59

Complete the entry with Activity for CCN(CC)CCNC(=O)c1c(C)[nH]c(/C=C2\C(=O)Nc3ccc(-c4nc(-c5ccccc5)cs4)cc32)c1C 64

Complete the entry with Activity for Cc1[nH]c(/C=C2\C(=O)Nc3c2cccc3-c2csc(-c3ccccc3)n2)c(C)c1C(=O)N1CCN(C)CC1 32

* * *

TARGET_OF_ASSAY: Serine/threonine-protein kinase RIO2 (Homo sapiens)
METHOD_DESCRIPTION: Inhibition of N-terminal GST-fused full length human recombinant RIOK2 expressed in baculovirus Sf21 cells assessed as reduction in kinase auto-phosphorylation at 10 uM in presence of ATP incubated for 1 hr by ELISA method
METRIC: inhibition (%)
Give the quantity in %, number only.

Complete the entry with inhibition for CCN(CC)CCNC(=O)c1c(C)[nH]c(/C=C2\C(=O)Nc3ccc(-c4ccnn4-c4ccc(C(F)(F)F)cc4)cc32)c1C 68

Complete the entry with inhibition for CCN(CC)CCNC(=O)c1c(C)[nH]c(/C=C2\C(=O)Nc3ccc(-c4cnn(C5CCOCC5)c4)cc32)c1C 68

Complete the entry with inhibition for CCN(CC)CCNC(=O)c1c(C)[nH]c(/C=C2\C(=O)Nc3ccc(-c4cnn(-c5ccccc5Cl)c4)cc32)c1C 99

Complete the entry with inhibition for CCN(CC)CCNC(=O)c1c(C)[nH]c(/C=C2\C(=O)Nc3ccc(-c4ccnn4-c4cccc(C)c4)cc32)c1C 137

Complete the entry with inhibition for Cc1[nH]c(/C=C2\C(=O)Nc3ccc(-c4cnn(-c5ccccc5)c4)cc32)c(C)c1C(=O)NCCc1ncc[nH]1 25

Complete the entry with inhibition for Cc1[nH]c(/C=C2\C(=O)Nc3ccc(-c4cnn(-c5ccccc5)c4)cc32)c(C)c1C(=O)NC[C@H]1CCCN1 126

Complete the entry with inhibition for CCN(CC)CCNC(=O)c1c(C)[nH]c(/C=C2\C(=O)Nc3ccc(-c4ccnn4-c4cccc(OC)c4)cc32)c1C 98

Complete the entry with inhibition for CCN(CC)CCNC(=O)c1c(C)[nH]c(/C=C2\C(=O)Nc3ccc(-c4ncc(-c5ccccc5)o4)cc32)c1C 56

Complete the entry with inhibition for CCN(CC)CCNC(=O)c1c(C)[nH]c(/C=C2\C(=O)Nc3ccc(-c4ccnn4-c4ccc(Cl)c(Cl)c4)cc32)c1C 87

Complete the entry with inhibition for Cc1[nH]c(/C=C2\C(=O)Nc3ccc(-c4cnn(-c5ccccc5)c4)cc32)c(C)c1C(=O)NC[C@@H]1CCCN1 94
